test details: NCI Yeast Anticancer Drug Screen. Data for the rad18 strain (AID 177)
details: S. cerevisiae rad18 mutant growth inhibition; at 3.7 µM; active compounds read high
The panel holds about 79,000 compounds, 15% with a hit somewhere; the sample as a whole holds those more often.
Quick reference: growth inhibition of the listed items.

molecule: CO[C@H]1C[C@](C)(O)Cc2cc3c(c(O)c21)C(=O)c1c(O)cc2c(c1C3=O)O[C@@H]1O[C@@]2(C)[C@H](O)[C@@H](N(C)C)[C@@H]1O
unit of measurement: %
growth inhibition: -27

molecule: Cn1c2ccccc2c(=O)c2cc(NC(=O)CCCCC(=O)Nc3ccc4c(c3)c(=O)c3ccccc3n4C)ccc21
unit of measurement: %
growth inhibition: 0

molecule: O=c1ssc2ncccc12
unit of measurement: %
growth inhibition: 27

molecule: O=C(c1ccc(Cl)cc1Cl)C(Cl)Cl
unit of measurement: %
growth inhibition: -34

molecule: CC/C(=C(\c1ccccc1)c1ccc(OCCN(C)C)cc1)c1ccccc1
unit of measurement: %
growth inhibition: 12

molecule: C(=C\c1ccccc1)/COc1ccccc1C(N1CCOCC1)n1nc2ccccc2n1 (stereo unspecified)
unit of measurement: %
growth inhibition: -7

molecule: CCC(C(=O)O)C1=C(c2ccccc2)CCc2ccccc21 (stereo unspecified)
unit of measurement: %
growth inhibition: 27

molecule: O=C(NNc1ccnc2cc(Cl)ccc12)/C(=C\c1ccccc1Cl)NC(=O)c1ccccc1
unit of measurement: %
growth inhibition: 10

molecule: Cc1ccc(CSC(N)=Nc2ccccc2)cc1C
unit of measurement: %
growth inhibition: -7

molecule: NC1=NS(=O)(=O)N=C(N)C1=Cc1ccc([N+](=O)[O-])o1
unit of measurement: %
growth inhibition: 17

molecule: OC(COc1cccc2ccccc12)CN1CCOCC1 (stereo unspecified)
unit of measurement: %
growth inhibition: 39

###

Quick reference: growth inhibition of the listed items.
test details: NCI Yeast Anticancer Drug Screen. Data for the rad18 strain (AID 177)
details: S. cerevisiae rad18 mutant growth inhibition; at 1.2 µM; active compounds read high
Description: Growth inhibition of yeast strains with defined genetic alterations is measured as a screen for potential anti-cancer activity. Selected strains with alterations in DNA damage repair or cell cycle control were exposed to compounds and growth inhibition was measured relative to vehicle treated controls. The strain used in this assay is rad18
This is part of a sample that, as a whole, favours compounds with a hit. Of some 79,000 tested, about 15% had one in any assay.

compound: Nc1ncncc1C(C1=C(O)COC1=O)C1=C(O)COC1=O
growth inhibition (%): 1
//
compound: Nc1ccn(C2OC(CO)C3[O][Sn]([c]4ccccc4)([c]4ccccc4)[O]C32)c(=O)n1 (centres undefined)
growth inhibition (%): 3
//
compound: NC1=NS(=O)(=O)N=C(N)C1=Cc1ccc([N+](=O)[O-])o1
growth inhibition (%): 11
//
compound: CCCCCCCCCCCCCC[N+](C)(CC(=O)[O-])Cc1ccccc1 (centres undefined)
growth inhibition (%): 3
//
compound: COc1ccc2c(c1)C(=O)c1ccccc1C2
growth inhibition (%): -2
//
compound: COc1ccccc1/C=C1\Sc2scc(-c3cccc([N+](=O)[O-])c3)[n+]2C1=O
growth inhibition (%): 14
//
compound: C[Si](C)(C)CNC(=O)OCc1ccccc1
growth inhibition (%): -3
//
compound: O=C1C(Nc2ccccc2)=C(Oc2ccccc2)C(=O)c2ccccc21
growth inhibition (%): -4
//
compound: CN(C)c1nc2sc3c(c2c(=O)o1)CCCC3
growth inhibition (%): 0
//
compound: CCCCCCCCCCCC(=O)N(C)C
growth inhibition (%): -9
//
compound: N#CSc1ccc(S(N)(=O)=O)cc1
growth inhibition (%): -47
//
compound: O=C(O)c1ccccc1NC(=S)c1ccccc1
growth inhibition (%): -16
//
compound: CCc1ccc(NS(=O)(=O)c2ccccc2)c([N+](=O)[O-])c1
growth inhibition (%): 2
//
compound: O=Nc1c(NO)ccc2nn(-c3ccccc3)nc12
growth inhibition (%): 79
//
compound: N#Cc1ccc(C2NN=CC23C(=O)c2ccccc2OC3c2ccccc2)cc1 (centres undefined)
growth inhibition (%): -3
//
compound: CCCCCCCCCCCCCCCCCCNC
growth inhibition (%): 17
//
compound: NC(=NCc1ccccc1)N/N=C\c1ccnc2ccccc12
growth inhibition (%): -2
//
compound: Cc1nc(-[n+]2nc(-c3ccncc3)nn2-c2ccccc2)sc1C
growth inhibition (%): 1
//
compound: CN(C)Cc1cc(N=Nc2ccc(Cl)cc2)cc(CN(C)C)c1O
growth inhibition (%): 7
//
compound: C[CH2][Sn]([CH2]C)([O]C(=O)C(OC(C)=O)c1ccccc1)[O]C(=O)C(OC(C)=O)c1ccccc1 (centres undefined)
growth inhibition (%): 4
//
compound: CC(/C=C/c1ccc2c(c1)OCO2)[N+](=O)[O-] (centres undefined)
growth inhibition (%): 10
//
compound: Cc1ccc(S/N=C\c2ccccc2O)cc1
growth inhibition (%): -1
//
compound: CC(C)(CN1CCCCC1)C(=O)CC(SCCS(=O)(=O)O)c1ccc(Br)cc1 (centres undefined)
growth inhibition (%): 2
//
compound: O=C(/C=C/c1cccc(Br)c1)c1cccs1
growth inhibition (%): 4
//
compound: CCOP(=O)(OCC)C(Cc1ccccc1)N=C(c1ccccc1)c1ccccc1 (centres undefined)
growth inhibition (%): 8
//
compound: C=CC(C)(O)CCC1C(=C)C(O)CC2C(C)(C)CCCC12C (centres undefined)
growth inhibition (%): -14
//
compound: S=c1[nH]nc(Nc2ccc(Cl)cc2)s1
growth inhibition (%): -3
//
compound: CSC(=S)Nc1cc(C)ccn1
growth inhibition (%): -23
//
compound: CCOC(=O)c1cc(-c2ccc(Cl)cc2)c([N+](=O)[O-])n1C
growth inhibition (%): 3
//
compound: OC1CSCCCSCCSCCCSC1
growth inhibition (%): -30
//
compound: O=C1c2cc([N+](=O)[O-])ccc2-c2cccc(F)c21
growth inhibition (%): 45
//
compound: [O-][n+]1c2ccc(O)cc2nc2ccc(Br)cc21
growth inhibition (%): 5
//
compound: CO[C@H]1C[C@](C)(O)Cc2cc3c(c(O)c21)C(=O)c1c(O)cc2c(c1C3=O)O[C@@H]1O[C@@]2(C)[C@H](O)[C@@H](N(C)C)[C@@H]1O
growth inhibition (%): -27
//
compound: CCCCc1cc(O)ccc1O
growth inhibition (%): 3

###

test details: NCI Yeast Anticancer Drug Screen. Data for the bub3 strain (AID 167)
details: S. cerevisiae bub3 mutant strain, at 50.0 µM (retest, dose inferred, filed as 5.0)
Compounds without any hit were thinned out: in the full panel of roughly 79,000, 15% have a hit. Calls of active or inactive are those of the source. Rule as the data show it: active = growth inhibition above about 70%; inactive = the rest.
Outcomes: active, inactive

compound: O=[N+]([O-])c1cccc([N+](=O)[O-])c1S(=O)(=O)c1ccccc1
cat: active

compound: Clc1ccc(SC(/C=C/NNC2=NC(c3ccccc3)C(c3ccccc3)=NN2)c2ccccc2)cc1 (configuration not stated)
cat: inactive

compound: Clc1ccccc1C1OC1c1ccccc1Cl (configuration not stated)
cat: active

compound: Cc1[nH]c2ccccc2c1C(c1ccc(N)cc1)c1c(C)[nH]c2ccccc12
cat: active

compound: COc1cc(C(=O)/C=C/c2ccccc2O)ccc1O
cat: active

compound: CCN(CC)C(C)(C)C(=O)/C=C/c1ccccc1
cat: active

compound: CNC1C(OC2C(OC3C(O)C(O)C(N=C(N)N)C(O)C3N=C(N)N)OC(C)C2(O)CO)OC(CO)C(O)C1O (configuration not stated)
cat: inactive

###

test details: NCI Yeast Anticancer Drug Screen. Data for the mlh1 strain (AID 171);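 also: 0% = growth of vehicle-treated control cultures of the same strain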
details: S. cerevisiae mlh1 strain growth inhibition; at 1.2 µM; active compounds read high
This is part of a sample that, as a whole, favours compounds with a hit. Of some 79,000 tested, about 15% had one in any assay.
outcome measure: growth inhibition (%)

compound: CN(Cc1cnc2nc(N)nc(N)c2n1)c1ccc(C(=O)N[C@@H](CCC(=O)O)C(=O)O)cc1
unit of measurement: %
recorded value: -1
//
compound: Cc1ccc(S/N=C\c2ccccc2O)cc1
unit of measurement: %
recorded value: 9
//
compound: CCCCCCCCCCCCCCC(C(=O)[O-])[n+]1ccccc1 (stereo not given)
unit of measurement: %
recorded value: 0
//
compound: Cc1ccc(CCC2=CCCc3c2ccc2ccccc32)cc1
unit of measurement: %
recorded value: -3
//
compound: Cn1c(=O)c(-c2ccccc2)c(N=[N+]=[N-])c2ccccc21
unit of measurement: %
recorded value: 1

###

test details: NCI Yeast Anticancer Drug Screen. Data for the rad18 strain (AID 177)
details: S. cerevisiae rad18 mutant growth inhibition; at 100.0 µM; active compounds read high
Experimental: Growth inhibition of yeast strains with defined genetic alterations is measured as a screen for potential anti-cancer activity. Selected strains with alterations in DNA damage repair or cell cycle control were exposed to compounds and growth inhibition was measured relative to vehicle treated controls. The strain used in this assay is rad18
The panel holds about 79,000 compounds, 15% with a hit somewhere; the sample as a whole holds those more often. Active and inactive are the calls of the source. Rule as the data show it: active = growth inhibition above about 70%; inactive = the rest.
Quick reference: growth inhibition of the listed items.

molecule: CCOC(=O)c1cc([N+](=O)[O-])cc([N+](=O)[O-])c1Sc1ncnc2nc[nH]c12
growth inhibition: 97% (active)
//
molecule: CN(C)CCn1c2c3ccccc3ccc2c2oc(=O)c3ccccc3c21
growth inhibition: 91% (active)
//
molecule: O=Cc1cccc2ccc3ccccc3c12
growth inhibition: 98% (active)
//
molecule: C[C@@H]1C[C@H]2[C@@H]3CCC4=CC(=O)C=C[C@]4(C)[C@@]3(Cl)[C@@H](Cl)C[C@]2(C)[C@@]1(O)C(=O)COP(=O)(O)O
growth inhibition: 7% (inactive)
//
molecule: CCCCCCCCCCNC(=O)OCC
growth inhibition: 99% (active)
//
molecule: O=C(c1ccc(Cl)cc1)C1OC12C(=O)Nc1ccccc12 (centres undefined)
growth inhibition: 99% (active)
//
molecule: CC(=O)SCCC[Si](C)(C)CCCSC(C)=O
growth inhibition: 51% (inactive)
//
molecule: CCCCc1cc(O)ccc1O
growth inhibition: 31% (inactive)
//
molecule: O=C(N=Nc1cc(Cl)ccc1Cl)NNc1cc(Cl)ccc1Cl
growth inhibition: 3% (inactive)
//
molecule: N#Cc1c(N)[nH]c2ccc(Sc3ccccc3)cc12
growth inhibition: 96% (active)
//
molecule: S=C(Nc1ccc(Cl)c(Cl)c1)SCc1ccc2c(c1)OCO2
growth inhibition: 96% (active)
//
molecule: O=[N+]([O-])c1cc2no[n+]([O-])c2cc1N1CCCCC1
growth inhibition: 96% (active)
//
molecule: COc1cc(C(=O)/C=C/c2ccccc2O)ccc1O
growth inhibition: 98% (active)
//
molecule: S=C(Nc1ccc(Cl)cc1)SC1CCCCC1
growth inhibition: 98% (active)
//
molecule: CCN(CC)CC(O)c1ccc2ccc3ccccc3c2c1 (centres undefined)
growth inhibition: 59% (inactive)
//
molecule: O=C1C2C(C(=O)N1c1ccc(OCc3ccccc3)cc1)C1c3ccccc3C2C2CCCCN21 (centres undefined)
growth inhibition: 81% (active)
//
molecule: CC(C)(Br)C(=O)/C=C/c1ccc(Cl)c(Cl)c1
growth inhibition: 50% (inactive)
//
molecule: Cc1c(C2=C(Br)C(=O)N(C)C2=O)c(=O)n(C)c(=O)n1C
growth inhibition: 96% (active)
//
molecule: CN(C)c1nc2sc3c(c2c(=O)o1)CCCC3
growth inhibition: 48% (inactive)
//
molecule: COC(=O)C1=C(C)NC(C)=C(C(=O)OC)C1c1cccc(/[N+]([O-])=C/c2ccccc2)c1
growth inhibition: 93% (active)
//
molecule: O=C(OCC=C1CCCC1)c1cc([N+](=O)[O-])cc([N+](=O)[O-])c1
growth inhibition: 98% (active)
//
molecule: CCOc1ccc2c(c1)c(CC(=O)O)cn2C
growth inhibition: 87% (active)
//
molecule: CCC#CCCCOC(=O)c1cc([N+](=O)[O-])cc([N+](=O)[O-])c1
growth inhibition: 99% (active)
//
molecule: CN=C(N)N/N=C/c1ccc2c(c1)Cc1ccccc1-2
growth inhibition: 90% (active)
//
molecule: Oc1ccc2ccccc2c1C(c1ccc(Cl)cc1)c1c(O)ccc2ccccc12
growth inhibition: 87% (active)
//
molecule: O=CC=C(c1ccccc1)c1ccccc1
growth inhibition: 98% (active)
//
molecule: CC(=O)Nc1ccc2c(c1)C(=Nc1ccc(C(=O)O)cc1)c1ccccc1-2
growth inhibition: 96% (active)
//
molecule: CSC(=S)N/N=C(\C)c1cccc(C)n1
growth inhibition: 96% (active)
//
molecule: CCC(C)COC(=O)c1ccc(N=Cc2ccc(C=Nc3ccc(C(=O)OCC(C)CC)cc3)cc2)cc1 (centres undefined)
growth inhibition: 22% (inactive)
//
molecule: COc1cc(/C=C2\CCc3ccccc3C2=O)cc(OC)c1OC
growth inhibition: 73% (active)
//
molecule: Oc1c(Br)cc(Br)cc1C1CCCCC1
growth inhibition: 97% (active)
//
molecule: COC(=O)c1ccc(CCC2=CC(=O)C(Br)=CC2=O)cc1
growth inhibition: 40% (inactive)
//
molecule: O=C(OCCN1CCCCCC1)C(c1ccsc1)C1CCCCC1 (centres undefined)
growth inhibition: 43% (inactive)
//
molecule: CCC[CH2][Ge]([CH2]CCC)([CH2]CCC)[O]C(=O)C(OC)c1ccccc1 (centres undefined)
growth inhibition: 98% (active)
